System: carbapenem-resistant P. aeruginosa clinical isolate CFS-1292
Assay: MIC by modified CLSI broth microdilution against P. aeruginosa CFS-1292 (CAA, CAA + human serum)
Format: cell-based, Pseudomonas aeruginosa
Conditions: 100% CAA; 1st run or single value
Assignment: determine reported MIC (μg/mL) against CFS-1292 in 100% CAA (1st run/2nd run) for the given sequences.
Give the figure together with its unit, number first.

Here's what some known entries look like.
MAGKKMVSKGKDRQIFRKTADRTKKMNVRPLLYRGGIRL [Chp12] | 8 µg/mL
MAKRHKIPQRASQHSFTRHAQKVHPKNVPRLPMRGGIRL [AVQ244] | 64 µg/mL
MARSRRRMSKRSSRRSFRKYAKSHKKNFKARSMRGGIRL [Ecp2] | 0.25 µg/mL
MRKRMSKRVDKKVFRRTAASAKKINIDPKIYRGGIRL [Osp1] | 16 µg/mL

Please report MIC (μg/mL) against CFS-1292 in 100% CAA (1st run/2nd run) for every entry that follows.
1. MARRYRLSRRRSRRLFSRTALRMHRRNRLRRIMRGGIRF [Chp4]
2. MARSRRRMSKRSSRRSFRKYAKTHKRNFKARSMRGGIRL [Ecp1]
3. MSKKASRKSFTKGAVKVHKKNVPTRVPMRGGIRL [Gkh2]
4. MAKKMTKGKDRQVFRKTADRTKKLNVRPLLYRGGIRL [Chp11]
5. MCKKVCKKCPKKGPKNAPKIGAFYERKTPRLKQST [CPAR39]

["0.5 µg/mL", "0.5 µg/mL", "16 µg/mL", "16 µg/mL", "4 µg/mL"]

// MIC (μg/mL) against CFS-1292 in 100% CAA (1st run/2nd run) lookup, key: MARRKKMKGKRDKRVFKQTANKTKAINISPKNMRGGTRL [Unp3] 8 µg/mL

---

Assignment: determine reported MIC for the given sequences.
System: Enterobacter cloacae
Test: microbe, parasite or virus in culture
Type: cell-based
Conditions: Enterobacter cloacae (ATCC 13047, MIC control strain), RSC 1240; CAA without human serum
Give the figure together with its unit, number first.

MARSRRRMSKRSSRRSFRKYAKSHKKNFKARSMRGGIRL [Ecp2] | 4 µg/mL

Please report MIC for every entry that follows.
1. MRLKMARRRYRLPRRRSRRLFSRTALRMHPRNRLRRIMRGGIRF [Chp2]
2. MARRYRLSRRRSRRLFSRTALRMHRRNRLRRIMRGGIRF [Chp4]
3. MVRRRRLRRRISRRIFRRTVARVGRRRRSFRGGIRF [Chp1]
4. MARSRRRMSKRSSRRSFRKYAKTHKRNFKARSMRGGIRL [Ecp1]

["4 µg/mL", "4 µg/mL", "8 µg/mL", "2 µg/mL"]

// MIC lookup, key: MARRRYRLPRRRSRRLFSRTALRMHPRNRLRRIMRGGIRF [Chp6] 4 µg/mL

---

System: M. avium
Test: 45 hr MIC against M. avium (NTM)
Assay type: cell-based, Mycobacterium avium
Settings: M. avium Chester ATCC 700898
Decision: 45 hr MIC compared against 1 µg/mL; not below it gives met, below it gives not met.

Here's what some known entries look like.
MSKKRSRMSRRRSKKLFSKTALRTKSVNTRPPMRGGFRF [Chp8] | met
MKRRKLSKKKSRKIFTRGAVNVKKRNLRARPMRGGFRI [Chp10] | not met

For this sequence, is measured 45 hr MIC 1 µg/mL or higher? MRPVKRSRVNKARSAGKFRKQVGKTKMANLRSNPMRGGWRL [HH3930] met

For this sequence, is measured 45 hr MIC 1 µg/mL or higher? MSLRRHKLSRKASKRIFRKGASRTKTLNTRATPMRGGFRI [Chp9] met

For this sequence, is measured 45 hr MIC 1 µg/mL or higher? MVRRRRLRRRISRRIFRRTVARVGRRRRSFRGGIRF [Chp1] met

For this sequence, is measured 45 hr MIC 1 µg/mL or higher? MKPLKRKPVQKARSAAKFRRNVSTVKAANMAVKPMRGGWRF [Fen7875] met

Data provenance: patent US20220401514A1
